Biological target: human recombinant P2X7 receptors (Homo sapiens, UniProt Q99572)
Construct: expressed in transfected cells
Sequence (Q99572 whole entry): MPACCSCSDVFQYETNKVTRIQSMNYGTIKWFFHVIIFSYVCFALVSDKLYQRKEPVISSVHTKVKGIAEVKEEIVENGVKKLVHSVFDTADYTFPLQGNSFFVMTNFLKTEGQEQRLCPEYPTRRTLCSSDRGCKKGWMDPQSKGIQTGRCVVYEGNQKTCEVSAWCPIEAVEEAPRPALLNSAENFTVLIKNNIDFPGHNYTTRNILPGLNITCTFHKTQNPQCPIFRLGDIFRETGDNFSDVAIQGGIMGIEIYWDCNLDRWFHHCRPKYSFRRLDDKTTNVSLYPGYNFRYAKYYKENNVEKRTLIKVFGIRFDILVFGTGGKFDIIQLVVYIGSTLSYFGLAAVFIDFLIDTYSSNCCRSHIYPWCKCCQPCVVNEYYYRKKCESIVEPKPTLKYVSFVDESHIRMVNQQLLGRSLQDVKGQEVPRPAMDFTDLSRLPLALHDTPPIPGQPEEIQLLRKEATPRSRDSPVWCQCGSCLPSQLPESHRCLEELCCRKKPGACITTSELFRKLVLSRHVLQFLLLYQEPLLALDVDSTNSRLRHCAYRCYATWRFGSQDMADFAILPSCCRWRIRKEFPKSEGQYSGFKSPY
Experiment: Ethidium Accumulation Assay
Format: cell-based
Details: HEK293 cells stably expressing human recombinant P2X7; blocking 1 mM ATP response; typically mean of more than one measurement; 'about' values; read-out: pIC50 in the Ethidium Accumulation Assay or a slightly modified version thereof (converted)
# IC50 values compiled below

Observe how each entry below is paired with its result.
| compound | IC50 |
| --- | --- |
| CCN1C(C(=O)NCc2ccc(F)c(F)c2Cl)CCS1(=O)=O (stereo not drawn) | 10 to 316 nM |
| CC(C)N1C(C(=O)NCc2ccc(F)cc2Cl)CCCS1(=O)=O (stereo not drawn) | 3980 to 15800 nM |
| CC(C)N1C(C(=O)NCc2ccc(Cl)cc2Cl)CCS1(=O)=O (stereo not drawn) | 10 to 316 nM |
| CC(C)N1C(C(=O)NCc2ccc(F)cc2C(F)(F)F)CCCS1(=O)=O (stereo not drawn) | 3980 to 15800 nM |

// next entry
Item CC(C)CN1C(C(=O)NCc2ccc(Cl)cc2Cl)CCS1(=O)=O (stereo not drawn) has what recorded IC50?
10 to 316 nM

----------
Biological target: human recombinant P2X7 receptors (Homo sapiens)
Construct: expressed in transfected cells
Assay: Ethidium Accumulation Assay
Format: cell-based
Conditions: HEK293 cells stably expressing human recombinant P2X7; blocking 1 mM ATP response; typically mean of more than one measurement; 'about' values; read-out: pIC50 in the Ethidium Accumulation Assay or a slightly modified version thereof (converted)
readoutType: IC50

| compound | IC50 |
| --- | --- |
| CCN1C(C(=O)NCc2ccc(F)cc2C(F)(F)F)CCS1(=O)=O (stereo not shown) [Example 21] | 10 to 316 nM |
| CC(C)CN1C(C(=O)NCc2ccccc2Cl)CCS1(=O)=O (stereo not shown) [Example 11] | 3980 to 15800 nM |
| CC(C)N1C(C(=O)NCc2ccc(F)c(F)c2F)CCCS1(=O)=O (stereo not shown) [Example 46] | 3980 to 15800 nM |
| CCN1C(C(=O)NCc2ccc(F)cc2Cl)CCS1(=O)=O (stereo not shown) [Example 15] | 10 to 316 nM |

Item CN1C(C(=O)NCc2ccc(Cl)cc2Cl)CCS1(=O)=O (stereo not shown) [Example 13] has what recorded IC50?
10 to 316 nM

Repeat with CCN1C(C(=O)NCc2cccc(Cl)c2C)CCS1(=O)=O (stereo not shown) [Example 20]
10 to 316 nM

Repeat with Cc1c(Cl)cccc1CNC(=O)C1CCS(=O)(=O)N1C(C)C (stereo not shown) [Example 18]
10 to 316 nM

Repeat with Cc1cccc(Cl)c1CNC(=O)C1CCCS(=O)(=O)N1C(C)C (stereo not shown) [Example 41]
3980 to 15800 nM

Repeat with CN1C(C(=O)NCc2cccc(C(F)(F)F)c2Cl)CCS1(=O)=O (stereo not shown) [Example 29]
10 to 316 nM

Repeat with CC(C)N1C(C(=O)NCc2ccccc2Cl)CCCS1(=O)=O (stereo not shown) [Example 44]
3980 to 15800 nM

----------
# IC50 values compiled below
Molecular target: human recombinant P2X7 receptors (Homo sapiens, UniProt Q99572)
Construct: expressed in transfected cells
Experiment: Ethidium Accumulation Assay
Assay type: cell-based
Conditions: HEK293 cells stably expressing human recombinant P2X7; blocking 1 mM ATP response; typically mean of more than one measurement; 'about' values; read-out: pIC50 in the Ethidium Accumulation Assay or a slightly modified version thereof (converted)

| compound | IC50 |
| --- | --- |
| CC(C)N1C(C(=O)NCc2ccc(F)cc2Cl)CCS1(=O)=O (stereo not shown) | 0.01 to 0.316 µM |

Item CCN1C(C(=O)NCc2ccc(Cl)cc2Cl)CCCS1(=O)=O (stereo not shown) has what recorded IC50?
0.01 to 0.316 µM

Repeat with CN1C(C(=O)NCc2ccc(Cl)cc2Cl)CCCS1(=O)=O (stereo not shown)
0.01 to 0.316 µM

Repeat with CN1C(C(=O)NCc2ccc(F)c(F)c2Cl)CCS1(=O)=O (stereo not shown)
0.01 to 0.316 µM

Repeat with CCN1C(C(=O)NCc2ccccc2Cl)CCCS1(=O)=O (stereo not shown)
3.98 to 15.8 µM

Repeat with CN1C(C(=O)NCc2ccc(F)cc2Cl)CCS1(=O)=O (stereo not shown)
0.01 to 0.316 µM

Repeat with CCN1C(C(=O)NCc2ccc(Cl)cc2Cl)CCS1(=O)=O (stereo not shown)
0.01 to 0.316 µM

Repeat with Cc1c(Cl)cccc1CNC(=O)C1CCS(=O)(=O)N1C (stereo not shown)
0.01 to 0.316 µM

Repeat with CCN1C(C(=O)NCc2cccc(C(F)(F)F)c2Cl)CCS1(=O)=O (stereo not shown)
0.01 to 0.316 µM

Repeat with CN1C(C(=O)NCc2ccc(F)cc2C(F)(F)F)CCCS1(=O)=O (stereo not shown)
3.98 to 15.8 µM
